- TARGET: Proteasome subunit beta type-8 (Homo sapiens, UniProt P28062)
- Sequence (P28062 whole entry): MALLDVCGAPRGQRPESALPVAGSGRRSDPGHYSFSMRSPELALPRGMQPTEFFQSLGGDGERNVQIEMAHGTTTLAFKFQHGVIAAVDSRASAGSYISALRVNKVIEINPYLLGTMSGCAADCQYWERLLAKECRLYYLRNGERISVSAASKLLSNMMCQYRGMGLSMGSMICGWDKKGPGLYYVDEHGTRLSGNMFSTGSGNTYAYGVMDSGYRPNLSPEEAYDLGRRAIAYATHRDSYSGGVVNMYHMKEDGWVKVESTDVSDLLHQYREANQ
- ASSAY DETAILS: Inhibition of human LMP7 beta -5i subunit using Ac-ANW-AMC as substrate preincubated with compound for 30 mins followed by substrate addition and measured after 1 hr by fluorescence based analysis
Define the label as met when IC50 is strictly less than 300 nM and as not met in all remaining cases.

Strictly below 300 nM in IC50? `O=C(N[C@@H](CC1CCCCC1)B(O)O)c1cn(C2CCCCC2)nn1`
met

Strictly below 300 nM in IC50? `CC(C)C[C@H](NC(=O)c1cnn(C2CCCCC2)c1)B(O)O`
not met

Strictly below 300 nM in IC50? `O=C(N[C@@H](Cc1coc2ccccc12)B(O)O)[C@@H]1C[C@H]2CC[C@@H]1O2`
met

Strictly below 300 nM in IC50? `O=C(N[C@H](B(O)O)C1CCCCC1)c1cn(C2CCCCC2)nn1`
met

Strictly below 300 nM in IC50? `CC(C)C[C@H](NC(=O)c1cc(C2CCCCC2)on1)B(O)O`
met

Strictly below 300 nM in IC50? `CC(C)C[C@H](NC(=O)c1ccc(C2CCCCC2)nn1)B(O)O`
met

Strictly below 300 nM in IC50? `CC(C)C[C@H](NC(=O)c1cnn(C2CCCCC2)n1)B(O)O`
not met

Strictly below 300 nM in IC50? `O=C(N[C@H](B(O)O)C1CCC1)c1cn(C2CCCCC2)nn1`
not met

Strictly below 300 nM in IC50? `O=C(N[C@@H](Cc1ccccc1)B(O)O)c1cn(C2CCCCC2)nn1`
met

Strictly below 300 nM in IC50? COc1ccc([C@@H](O)[C@H](NC(=O)[C@H](C)NC(=O)CN2CCOCC2)C(=O)N[C@@H](CC2=CCCC2)C(=O)[C@@]2(C)CO2)cc1 [ZETOMIPZOMIB]
met

----------
Exercise: for every item that follows, state its recorded IC50.
- TARGET: Proteasome Macropain subunit MB1 (Homo sapiens)
- Sequence (P28074 whole entry): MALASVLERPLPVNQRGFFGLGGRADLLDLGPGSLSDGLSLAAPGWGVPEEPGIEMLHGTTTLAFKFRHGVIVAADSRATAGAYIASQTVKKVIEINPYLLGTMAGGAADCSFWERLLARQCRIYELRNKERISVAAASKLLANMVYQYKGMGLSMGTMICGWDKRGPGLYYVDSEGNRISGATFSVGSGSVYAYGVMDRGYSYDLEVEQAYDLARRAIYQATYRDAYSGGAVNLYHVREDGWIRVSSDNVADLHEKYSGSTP
- ASSAY DETAILS: Inhibition of human 20S proteosome beta5c subunit using Ac-WLA-AMC as substrate preincubated with compound for 30 mins followed by substrate addition and measured after 1 hr by fluorescence based analysis
Note: unit µM is implicit; provide only the numeric part.

# IC50 lookup, item `CC(C)C[C@H](NC(=O)c1cnn(C2CCCCC2)n1)B(O)O`
6.31

# IC50 lookup, item `O=C(N[C@@H](CC1CCC1)B(O)O)c1cn(C2CCCCC2)nn1`
13.1

# IC50 lookup, item `CC(C)C[C@H](NC(=O)c1cn(C2CCCCC2)nn1)B(O)O`
3.22

# IC50 lookup, item `O=C(N[C@@H](CC1CCCC1)B(O)O)c1cn(C2CCCCC2)nn1`
15.4

# IC50 lookup, item `O=C(N[C@@H](Cc1coc2ccccc12)B(O)O)[C@@H]1C[C@H]2CC[C@@H]1O2`
2.41

----------
- TARGET: Proteasome subunit beta type-9 (Homo sapiens, UniProt P28065)
- Sequence (P28065 whole entry): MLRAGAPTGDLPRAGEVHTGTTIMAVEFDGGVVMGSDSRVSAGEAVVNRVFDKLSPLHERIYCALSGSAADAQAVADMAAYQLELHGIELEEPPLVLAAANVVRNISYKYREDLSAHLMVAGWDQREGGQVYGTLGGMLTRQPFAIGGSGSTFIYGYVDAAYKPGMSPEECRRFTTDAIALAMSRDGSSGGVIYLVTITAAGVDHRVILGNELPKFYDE
- ASSAY DETAILS: Inhibition of human LMP2 beta-1i subunit using Ac-PAL-AMC as substrate preincubated with compound for 30 mins followed by substrate addition and measured after 1 hr by fluorescence based analysis
METRIC: IC50

# IC50 lookup, item `O=C(N[C@@H](CC1CCCCC1)B(O)O)c1cn(C2CCCCC2)nn1`
< 10 nM

# IC50 lookup, item `O=C(N[C@H](B(O)O)C1CCC1)c1cn(C2CCCCC2)nn1`
< 5 nM

# IC50 lookup, item `O=C(N[C@@H](Cc1coc2ccccc12)B(O)O)[C@@H]1C[C@H]2CC[C@@H]1O2`
> 80000 nM

# IC50 lookup, item `O=C(N[C@@H](CC1CCCC1)B(O)O)c1cn(C2CCCCC2)nn1`
< 5 nM

# IC50 lookup, item `O=C(N[C@@H](CC1CCC1)B(O)O)c1cn(C2CCCCC2)nn1`
< 5 nM
